- test_name: protein stability index of a GFP-peptide fusion (GPS, HEK-293T) (PSI 1-6); higher = more stable;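 also: 24-mer peptide tiles fused after GFP, lentivirally expressed, FACS-sorted into six equal bins by GFP/DsRed ratio, decoded by Illumina sequencing, PSI is the read-weighted mean bin number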
- measurement_parameters: treatment: MLN4924 1 uM, 8 h; c terminus: a fixed tail appended
Examples of sequences with documented protein stability index follow.
Give only the figure.

Observe how each entry below is paired with its result.
For reference, reported protein stability index for LKVGGILVMPLEEKLTKITRTGPS [PCMTD2] stands at 2.16

For reference, reported protein stability index for RSERKKWIHCFEGVTAIIFCVALS [GNAI1] stands at 2.89

For reference, reported protein stability index for ITHSTYSLPASSYSQDPVYANGGL [NOL4L] stands at 3.18

For reference, reported protein stability index for HSGQVTILKLEQENCTLVTTFRGH [WDFY2] stands at 2.29

New cases:
For reference, reported protein stability index for YLNGASVLPHKSIGESVPEPRIIM [GMPPB] stands at 2.84

For reference, reported protein stability index for LVSLTSRNPDQRKESLCISITVSK [FBXO34] stands at 2.47

For reference, reported protein stability index for EEPQWVPDKECRRCMQCDAKFDFL [ZFYVE21] stands at 2.95

For reference, reported protein stability index for RSQYEALVETNRREVEQWFATQTE [KRT34] stands at 4.33

For reference, reported protein stability index for AAETASLEEQLQGWGEVMLMADKV [ARL6IP1] stands at 4.45

For reference, reported protein stability index for KVHTVPKPGKGADLSKPPCRKAKE [ATE1] stands at 5.12
